Assay: log P by HPLC on reversed-phase column (C 18), EEC Directive 79831 Annex V.A8
Format: physicochemical
Conditions: HPLC reversed-phase C 18, 40° C., 0.1% aqueous formic acid and acetonitrile gradient; several values = mixture of two or more isomers
Description: In table 1, the log P values were determined in accordance with EEC Directive 79831 Annex V.A8 by HPLC (High Performance Liquid Chromatography) on a reversed-phase column (C 18), using the method described below: Temperature: 40° C.; Mobile phases: 0.1% aqueous formic acid and acetonitrile; linear gradient from 10% acetonitrile to 90% acetonitrile. […]
Please go through the items and note down their logP.
Enter a number only.

[in] Which logP value is on record for Cn1cc(C(=O)NCC2C3CC4CC(C3)CC2C4)c(C(F)F)n1 (stereo not shown) ?
[out] 3.27

[in] Which logP value is on record for Cn1nc(C(F)F)c(C(=O)NCC2C3CC4CC(C3)CC2C4)c1Cl (stereo not shown) ?
[out] 3.90

[in] Given the entry CC(C1CC2CCC1C2)N(C(=O)c1c(C(F)F)nn(C)c1F)C1CC1 (stereo not shown) , report its measured logP.
[out] 4.01

[in] // logP lookup, key: Cn1nc(C(F)F)c(C(=O)N(C2CC2)C2CC3CCCCC3C2)c1F (stereo not shown)
[out] 4.11

[in] Look up logP for this compound: CC(C1CC2CCC1C2)N(C(=S)c1c(C(F)F)nn(C)c1F)C1CC1 (stereo not shown)
[out] 4.47

[in] What value of logP has been recorded for this entry: Cn1nc(C(F)F)c(C(=O)NC2CCC3CCCC32)c1F (stereo not shown)
[out] 2.86

[in] Tell me the measured logP of Cn1nc(C(F)F)c(C(=O)NCC2CCC3CC2C3(C)C)c1Cl (stereo not shown) , please.
[out] 3.85

[in] Give its logP value. Item: Cc1nn(C)c(F)c1C(=O)N(C1CC1)C(C)C1CC2CCC1C2 (stereo not shown)
[out] 3.46

[in] What value of logP has been reported for the following compound? Cn1nc(C(F)F)c(C(=O)N(CC2(Cc3ccccc3)CC3CCC2C3)C2CC2)c1F (stereo not shown)
[out] 4.91

[in] For the compound shown here, Cn1cc(C(=O)N(C2CC2)C2CCC3CCCC32)c(C(F)F)n1 (stereo not shown) [Example 7] , give the reported logP.
[out] 3.19

[in] What value of logP has been reported for the following compound? Cn1nc(C(F)F)c(C(=O)N(CC2CCCC3CCCCC32)C2CC2)c1F (stereo not shown)
[out] 4.90

[in] Data request, read-out logP, for Cn1nc(C(F)F)c(C(=O)N(CC2CC3CCC2C3)C2CC2)c1F (stereo not shown)
[out] 3.58

[in] Would you mind telling me what logP value was observed for CC1C(CNC(=S)c2c(C(F)F)nn(C)c2F)CC2CC1C2(C)C (stereo not shown) ?
[out] 4.82

[in] For the compound Cn1nc(C(F)F)c(C(=O)N(CC2CCCC3CCCCC32)C2CC2)c1Cl (stereo not shown) , what logP is on record?
[out] 5.08

[in] So what does the record say about logP for Cn1nc(C(F)F)c(C(=O)NCC2C3CC4CC(C3)CC2C4)c1F (stereo not shown) ?
[out] 3.68

[in] Can you share its logP? I mean this compound: Cn1nc(C(F)F)c(C(=O)N(C2CC2)C2CCCC3CCCCC32)c1Cl (stereo not shown)
[out] 4.68

[in] Consider the compound Cn1cc(C(=O)NC2CCC3CCCC32)c(C(F)F)n1 (stereo not shown) and give its measured logP.
[out] 2.51

[in] // query logP value for entry CC(C1CC2CCC1C2)N(C(=O)c1cn(C)nc1C(F)F)C1CC1 (stereo not shown)
[out] 3.52

[in] Could you tell me which logP is on file for CC1C(CN(C(=O)c2c(C(F)F)nn(C)c2F)C2CC2)CC2CC1C2(C)C (stereo not shown) ?
[out] 4.69
